# System: 786-0
# METHOD: Cytotoxicity against human 786-0 cells assessed as growth inhibition at 10 uM relative to control
# Assay type: functional
# SETUP_CONDITIONS: read-out: GI
MEASUREMENT_NAME: inhibition of growth at 10 µM
Units required after the number.

Give the measured inhibition of growth at 10 µM of "Cc1ccc2[nH]c(=S)n(-c3ccc(S(=O)(=O)Nc4ccc(Cl)nn4)cc3)c(=O)c2c1" .
39%

Give the measured inhibition of growth at 10 µM of "O=C(CSc1nc2ccccc2c(=O)n1-c1ccc(S(=O)(=O)Nc2ccc(Cl)nn2)cc1)NCc1ccccc1" .
10%

Give the measured inhibition of growth at 10 µM of "O=c1c2cc(Cl)cc(Cl)c2[nH]c(=S)n1-c1ccc(S(=O)(=O)Nc2ccc(Cl)nn2)cc1" .
21%

Give the measured inhibition of growth at 10 µM of "O=C(CSc1nc2ccccc2c(=O)n1-c1ccc(S(=O)(=O)Nc2ccc(Cl)nn2)cc1)NCCc1ccccc1" .
16%
